# Method Notes: molar heat capacity at constant pressure
# Condition Notes: 400.15 K; 101.33 kPa; Liquid; Small sample (50 mg) DSC
Tick criterion met if molar heat capacity at constant pressure is 600 J/K/mol or greater. Tick criterion not met if molar heat capacity at constant pressure is less than 600 J/K/mol.

The following molecules have reported results that may help.
Molecule	Label
CCCCCCCCn1cc[n+](C)c1.O=S(=O)([O-])C(F)(F)F [1-octyl-3-methylimidazolium trifluoromethanesulfonate]	criterion met
CCn1cc[n+](C)c1.O=S(=O)([O-])C(F)(F)F [1-ethyl-3-methylimidazolium trifluoromethanesulfonate]	criterion not met

Exercise: Item `CCCCCC[n+]1ccn(C)c1.O=S(=O)([N-]S(=O)(=O)C(F)(F)F)C(F)(F)F` with molar heat capacity at constant pressure of 600 J/K/mol or above?
Key: criterion met

Exercise: Item CCCCCCn1cc[n+](C)c1.O=S(=O)([O-])C(F)(F)F [1-hexyl-3-methylimidazolium trifluoromethanesulfonate] with molar heat capacity at constant pressure of 600 J/K/mol or above?
Key: criterion not met

Exercise: Item CCCCn1cc[n+](C)c1.O=S(=O)([O-])C(F)(F)F [1-butyl-3-methylimidazolium trifluoromethanesulfonate] with molar heat capacity at constant pressure of 600 J/K/mol or above?
Key: criterion not met

Exercise: Item CCCC[n+]1ccccc1.O=S(=O)([N-]S(=O)(=O)C(F)(F)F)C(F)(F)F [1-butylpyridinium bis[(trifluoromethyl)sulfonyl]imide] with molar heat capacity at constant pressure of 600 J/K/mol or above?
Key: criterion met
